// provenance: the supplement of paper PMC6755084

// reported fraction ligated for each item listed
B1: F1*; the commonest letter at each place (parent)
chain: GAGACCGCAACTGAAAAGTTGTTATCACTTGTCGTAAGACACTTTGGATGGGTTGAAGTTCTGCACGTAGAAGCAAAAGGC

- Variants of: B1
- procedure.summary: fraction ligated after 30 min (ligated reads / total reads); higher = more ligase activity
- condition.summary: with F1*sub RNA substrate (template-directed ligation), 42 °C

Known fraction ligated results, listed for orientation:
| residue.change | fraction ligated |
| --- | --- |
| C28G T35C | 0.802 |
| C40G A57C | 0.788 |
| T32G G38A | 0.822 |
| A27C A41G | 0.781 |
| C42T A48G | 0.806 |
| C28T A57G | 0.798 |
| T44A G46C | 0.793 |

Input: Reported fraction ligated, variant C33G A41T : ____
Output: 0.789
